System: OVCAR-5 ovarian
Assay: NCI-60 one-dose screen, 48 h (100 = growth as untreated, 0 = no growth, -100 = all killed)
Conditions: 10 µM unless noted
This is part of a sample that, as a whole, favours compounds with a hit. Of some 83,000 tested, about 20% had one in any assay. Active and inactive are the calls of the source. The calls were made as follows: active = growth percent below 10; inactive = the rest.
Measured growth, listed per entry.

{"columns": ["COMPOUND", "growth"],
 "data": [
  ["COc1ccc(S(=O)(=O)N2CCCCC2)cc1NC(=O)c1[nH]c(C)c2c1CCCCC2=O", "48.4% (inactive)"],
  ["CCOC(=O)n1cc(-c2nonc2-c2cn(C)c3ncccc23)c2cc(F)ccc21", "87.7% (inactive)"],
  ["NC(=NC1C2CC3CC(C2)CC1C3)Nc1ccc(I)cc1 (configuration not stated)", "38.9% (inactive)"],
  ["CCOC(=O)C(C)(C#N)C1C=CCCC1 (configuration not stated)", "68.2% (inactive)"],
  ["Cc1cc(C)nc(SC2=C(Nc3ccc(O)cc3)C(=O)N(Cc3ccccc3)C2=O)n1", "120% [40 µM] (inactive)"],
  ["CC(=O)Oc1ccc(Cl)cc1CN(C(C)=O)C1CCCCC1", "103% (inactive)"],
  ["COc1cccc(Nc2nc(SC)nc(-c3cccc([N+](=O)[O-])c3)c2C#N)c1", "81.6% (inactive)"]
]}
